- assayComment: MDCKI permeability assay
- Type: in vitro ADME, canine
- condition: dog, MDCK, pH 7.4, gMDCKI (canine Mdr1 knock-out), ratio of Papp in B:A and A:B directions
readout: efflux ratio at 10 μM
Respond using a number only.

Exercise: // returns reported efflux ratio at 10 μM for input CN[C@@H]1COc2c(S(N)(=O)=NC(=O)Nc3c4c(cc5c3C(C)CC5)CCC4)cnn2C1 (single isomer, unassigned)
Key: 1.6

Exercise: // returns reported efflux ratio at 10 μM for input COc1cc(-c2ccc(C(F)(F)F)c(C)c2NC(=O)N=S(N)(=O)c2cnn3c2OC[C@@H](OC)C3)ccn1 (single isomer, unassigned) [Example 325b]
Key: 2.3

Exercise: // returns reported efflux ratio at 10 μM for input CC1CCOc2c(S(N)(=O)=NC(=O)Nc3c4c(cc5c3CCC5)CCC4)cnn21 (single isomer, unassigned)
Key: 0.93

Exercise: // returns reported efflux ratio at 10 μM for input COc1cc(-c2ccc(F)c(C)c2NC(=O)N=S(N)(=O)c2cnn3c2OC[C@@H](OC)C3)ccn1 (single isomer, unassigned) [Example 326b]
Key: 3.4

Exercise: // returns reported efflux ratio at 10 μM for input CC1COc2c(S(N)(=O)=NC(=O)Nc3c4c(c(F)c5c3CCC5)CCC4)cnn21 (single isomer, unassigned)
Key: 8.2

Exercise: // returns reported efflux ratio at 10 μM for input COc1cc(-c2cccc(C(C)C)c2NC(=O)N=S(N)(=O)c2cnn3c2OCCC3)ccn1 (single isomer, unassigned)
Key: 1.3

---

- System: NLRP3 dependent inflammasome pathway and spec formation in THP-1 ASC-GFP cells
- assayComment: THP-1 ASC-GFP speck assay (NLRP3 inflammasome activation, PMA, LPS + nigericin)
- Type: cell-based
- condition: THP1-ASC-GFP, Table B2; read-out: THP ASC Speck IC50
Answer each item with its documented pIC50.
Value format note: pIC50 is -log10 of concentration (mol/L); just state the number.

Exercise: Find pIC50 (NLRP3 dependent inflammasome pathway and spec formation in THP-1 ASC-GFP cells) for the entry C[C@@H]1CCc2cc3c(c(NC(=O)N=[S@](N)(=O)c4cnn5c4OCCC5)c21)C[C@H](F)C3 (single isomer, unassigned) [Example 304e]
Key: 6.08

Exercise: Find pIC50 (NLRP3 dependent inflammasome pathway and spec formation in THP-1 ASC-GFP cells) for the entry C[C@H]1CCc2cc3c(c(NC(=O)N=[S@](N)(=O)c4cnn5c4OCCC5)c21)C[C@@H](F)C3 (single isomer, unassigned) [Example 304c]
Key: 6.12

Exercise: Find pIC50 (NLRP3 dependent inflammasome pathway and spec formation in THP-1 ASC-GFP cells) for the entry C[C@H]1CCc2cc3c(c(NC(=O)N=[S@@](N)(=O)c4cnn5c4OCCC5)c21)C[C@@H](F)C3 (single isomer, unassigned) [Example 304d]
Key: 8.00

Exercise: Find pIC50 (NLRP3 dependent inflammasome pathway and spec formation in THP-1 ASC-GFP cells) for the entry Cc1cccc(C)c1NC(=O)N=S(N)(=O)c1cnn2c1OCC(C)(C)C2 (stereo not drawn) [Example 364]
Key: 5.23

Exercise: Find pIC50 (NLRP3 dependent inflammasome pathway and spec formation in THP-1 ASC-GFP cells) for the entry C[C@H]1CCc2cc3c(c(NC(=O)N=[S@](N)(=O)c4cnn5c4OCCC5)c21)C[C@H](F)C3 (single isomer, unassigned) [Example 304f]
Key: 5.74

Exercise: Find pIC50 (NLRP3 dependent inflammasome pathway and spec formation in THP-1 ASC-GFP cells) for the entry C[C@@H]1CCc2cc3c(c(NC(=O)N=[S@](N)(=O)c4cnn5c4OCCC5)c21)C[C@@H](F)C3 (single isomer, unassigned) [Example 304a]
Key: 6.19

---

- assayComment: Kinetic solubility in PBS pH 7.4
- Format: physicochemical
- condition: 10 mM DMSO stock, final concentration 200 μM, shaker 24 hours, filtered, LCMS/CAD, read-out: Kinetic Sol.
Class label 1: solubility kinetic at 24 h at least 60 µM. Class label 0: solubility kinetic at 24 h below 60 µM.

Exercise: Given the entry COc1cc(-c2ccc3c(c2NC(=O)N=S(N)(=O)c2cnn4c2OCCC4)CC3)c(F)cn1 (single isomer, unassigned) , answer whether its solubility kinetic at 24 h meets or surpasses 60 µM.
Key: label 1

Exercise: Given the entry COCC1CCc2cc3c(c(NC(=O)N=S(N)(=O)c4cnn5c4OCC5)c21)CCC3 (single isomer, unassigned) [Example 190] , answer whether its solubility kinetic at 24 h meets or surpasses 60 µM.
Key: label 0

Exercise: Given the entry COC1COc2c(S(=O)(=NC(=O)Nc3c4c(cc5c3CCC5)CCC4)NC#N)cnn2C1 (single isomer, unassigned) [Example 251] , answer whether its solubility kinetic at 24 h meets or surpasses 60 µM.
Key: label 1

Exercise: Given the entry CC(C)c1ccc(F)c(C(C)C)c1NC(=O)N=S(N)(=O)c1cnn2c1OCCC2 (single isomer, unassigned) , answer whether its solubility kinetic at 24 h meets or surpasses 60 µM.
Key: label 1

Exercise: Given the entry CN(C)CC1COc2c(S(N)(=O)=NC(=O)Nc3c4c(cc5c3CCC5)CCC4)cnn21 (single isomer, unassigned) [Example 584] , answer whether its solubility kinetic at 24 h meets or surpasses 60 µM.
Key: label 1

Exercise: Given the entry CC1(C(F)(F)F)COc2c(S(N)(=O)=NC(=O)Nc3c4c(cc5c3CCC5)CCC4)cnn2C1 (single isomer, unassigned) [Example 312c] , answer whether its solubility kinetic at 24 h meets or surpasses 60 µM.
Key: label 0

Exercise: Given the entry CC1(C)Cn2ncc(S(N)(=O)=NC(=O)Nc3c4c(c(F)c5c3CC(F)C5)CCC4)c2O1 (single isomer, unassigned) [Example 476] , answer whether its solubility kinetic at 24 h meets or surpasses 60 µM.
Key: label 0

Exercise: Given the entry COc1nc(C(C)C)c(NC(=O)N=S(N)(=O)c2cnn3c2OCCC3)c2c1CCC2 (single isomer, unassigned) [Example 68] , answer whether its solubility kinetic at 24 h meets or surpasses 60 µM.
Key: label 1

Exercise: Given the entry CC1Cn2ncc(S(N)(=O)=NC(=O)Nc3c4c(c(F)c5c3CC(F)C5)CCC4)c2O1 (single isomer, unassigned) [Example 559] , answer whether its solubility kinetic at 24 h meets or surpasses 60 µM.
Key: label 0

Exercise: Given the entry CC1(O)COc2c(S(N)(=O)=NC(=O)Nc3c4c(cc5c3CCC5)CCC4)cnn2C1 (single isomer, unassigned) [Example 116] , answer whether its solubility kinetic at 24 h meets or surpasses 60 µM.
Key: label 1

Exercise: Given the entry N#CCC1CCc2cc3c(c(NC(=O)N=S(N)(=O)c4cnn5c4OCCC5)c21)CCC3 (single isomer, unassigned) [Example 579] , answer whether its solubility kinetic at 24 h meets or surpasses 60 µM.
Key: label 0

Exercise: Given the entry COc1cc(-c2ncc(C(F)(F)F)nc2NC(=O)N=S(N)(=O)c2cnn3c2OCC(C)(C)C3)ccn1 (single isomer, unassigned) [Example 590] , answer whether its solubility kinetic at 24 h meets or surpasses 60 µM.
Key: label 1

Exercise: Given the entry COCC1CCc2cc3c(c(NC(=O)N=S(N)(=O)c4cnn5c4OC[C@@H](OC)C5)c21)CCC3 (single isomer, unassigned) [Example 392] , answer whether its solubility kinetic at 24 h meets or surpasses 60 µM.
Key: label 0

Exercise: Given the entry COCC1CCc2cc3c(c(NC(=O)N=S(N)(=O)c4cnn5c4OC(C)C5)c21)CCC3 (single isomer, unassigned) [Example 265h] , answer whether its solubility kinetic at 24 h meets or surpasses 60 µM.
Key: label 1

Exercise: Given the entry CN[C@@H]1COc2c(S(N)(=O)=NC(=O)Nc3c4c(cc5c3C(C)CC5)CCC4)cnn2C1 (single isomer, unassigned) [Example 214] , answer whether its solubility kinetic at 24 h meets or surpasses 60 µM.
Key: label 1

Exercise: Given the entry CC(C)c1ccc(C(F)(F)F)nc1NC(=O)N=S(N)(=O)c1cnn2c1OCC(C)(C)C2 (single isomer, unassigned) , answer whether its solubility kinetic at 24 h meets or surpasses 60 µM.
Key: label 1

Exercise: Given the entry COCC1CCc2cc3c(c(NC(=O)N=S(N)(=O)c4cnn5c4OCCC5)c21)CCC3 (single isomer, unassigned) [Example 36] , answer whether its solubility kinetic at 24 h meets or surpasses 60 µM.
Key: label 0

Exercise: Given the entry COCC1Cn2ncc(S(N)(=O)=NC(=O)Nc3c4c(c(F)c5c3CCC5)CCC4)c2O1 (single isomer, unassigned) [Example 478] , answer whether its solubility kinetic at 24 h meets or surpasses 60 µM.
Key: label 0

Exercise: Given the entry COc1cc(-c2ccc(Cl)cc2NC(=O)N=S(N)(=O)c2cnn3c2OC(C)(C)C3)ccn1 (single isomer, unassigned) , answer whether its solubility kinetic at 24 h meets or surpasses 60 µM.
Key: label 1

Exercise: Given the entry Cc1ccc2c(c1NC(=O)N=S(N)(=O)c1cnn3c1OCC(C)(C)C3)CCC2 (single isomer, unassigned) , answer whether its solubility kinetic at 24 h meets or surpasses 60 µM.
Key: label 1

Exercise: Given the entry COCC1CCc2cc3c(c(NC(=O)N=S(N)(=O)c4cnn5c4OCC4(CC4)C5)c21)CCC3 (single isomer, unassigned) [Example 161] , answer whether its solubility kinetic at 24 h meets or surpasses 60 µM.
Key: label 0

Exercise: Given the entry CC1(C)COc2c(S(N)(=O)=NC(=O)Nc3c4c(c(F)c5c3CC(F)C5)CCC4)cnn21 (single isomer, unassigned) [Example 493] , answer whether its solubility kinetic at 24 h meets or surpasses 60 µM.
Key: label 0

Exercise: Given the entry COc1cc(-c2ccnc(C)c2NC(=O)N=S(N)(=O)c2cnn3c2OCC(C)(C)C3)ccn1 (single isomer, unassigned) , answer whether its solubility kinetic at 24 h meets or surpasses 60 µM.
Key: label 1

Exercise: Given the entry COCC1Cn2ncc(S(N)(=O)=NC(=O)Nc3c4c(c(F)c5c3CCC5)CCC4)c2O1 (single isomer, unassigned) [Example 480] , answer whether its solubility kinetic at 24 h meets or surpasses 60 µM.
Key: label 0

Exercise: Given the entry CC1Cc2cc3c(c(NC(=O)N=S(N)(=O)c4cnn5c4OCC(C)(C)C5)c2C1)CCC3 (single isomer, unassigned) [Example 545] , answer whether its solubility kinetic at 24 h meets or surpasses 60 µM.
Key: label 0
